# Assay Info: self-splicing fitness, log relative to wild type (ln ratio); higher = more splicing; Tetrahymena group I intron in knt gene, E. coli kanamycin selection, DiMSum; sequences stand for … in CUCUCU…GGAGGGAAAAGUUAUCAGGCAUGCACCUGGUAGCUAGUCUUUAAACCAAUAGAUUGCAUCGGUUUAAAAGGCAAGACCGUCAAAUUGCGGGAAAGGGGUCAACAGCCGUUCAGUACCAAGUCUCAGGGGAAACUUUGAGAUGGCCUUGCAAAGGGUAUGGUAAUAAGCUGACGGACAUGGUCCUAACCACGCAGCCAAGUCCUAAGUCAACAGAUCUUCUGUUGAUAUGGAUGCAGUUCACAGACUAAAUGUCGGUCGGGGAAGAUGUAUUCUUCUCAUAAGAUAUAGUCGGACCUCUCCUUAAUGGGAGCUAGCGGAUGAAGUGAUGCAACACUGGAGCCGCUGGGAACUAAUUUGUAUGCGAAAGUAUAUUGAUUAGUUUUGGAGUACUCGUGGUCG;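 note: selection with 25 µg/mL kanamycin versus none on LB agar overnight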
# Run Conditions: 37 °C

{"Input Sequence": "ACGGAGCAAUAUUACGUUGG", "self-splicing fitness (ln)": -2.05}
{"Input Sequence": "GGUGAGCAAUAUUACGUGUA", "self-splicing fitness (ln)": -3.22}
{"Input Sequence": "AGAAAGCAAUAUUACGAGAA", "self-splicing fitness (ln)": -1.24}
{"Input Sequence": "UUUAAGCAAUAUUACGUCUU", "self-splicing fitness (ln)": -1.81}
{"Input Sequence": "GACUAGCAAUAUUACGAAUG", "self-splicing fitness (ln)": -1.93}
{"Input Sequence": "GAUGAGCAAUAUUACGUCUU", "self-splicing fitness (ln)": -0.691}
{"Input Sequence": "AUUAAGCAAUAUUACGAACG", "self-splicing fitness (ln)": -0.243}
{"Input Sequence": "CGUAAGCAAUAUUACGGUAA", "self-splicing fitness (ln)": -1.36}
{"Input Sequence": "CACAAGCAAUAUUACGAAUC", "self-splicing fitness (ln)": -2.37}
{"Input Sequence": "AUAUAGCAAUAUUACGGCGG", "self-splicing fitness (ln)": -0.534}
{"Input Sequence": "UCUGAGCAAUAUUACGUUCA", "self-splicing fitness (ln)": -2.87}
{"Input Sequence": "UGCAAGCAAUAUUACGCUGA", "self-splicing fitness (ln)": -0.102}
{"Input Sequence": "CCAGAGCAAUAUUACGGUUC", "self-splicing fitness (ln)": -2.38}
{"Input Sequence": "UAGUAGCAAUAUUACGUUCC", "self-splicing fitness (ln)": -0.984}
{"Input Sequence": "CAGAAGCAAUAUUACGCGGA", "self-splicing fitness (ln)": -3.11}
{"Input Sequence": "CAUAAGCAAUAUUACGUCAU", "self-splicing fitness (ln)": -2.19}
{"Input Sequence": "GAUCAGCAAUAUUACGGGCA", "self-splicing fitness (ln)": -0.574}
{"Input Sequence": "AUCCAGCAAUAUUACGUCAC", "self-splicing fitness (ln)": -2.44}
{"Input Sequence": "CAAGAGCAAUAUUACGUUAG", "self-splicing fitness (ln)": -0.995}
{"Input Sequence": "GCCAAGCAAUAUUACGCUCU", "self-splicing fitness (ln)": -0.0648}
{"Input Sequence": "UGCGAGCAAUAUUACGGACU", "self-splicing fitness (ln)": -1.12}
{"Input Sequence": "AUCUAGCAAUAUUACGGUCU", "self-splicing fitness (ln)": -0.908}
{"Input Sequence": "UAUUAGCAAUAUUACGUCUU", "self-splicing fitness (ln)": -0.681}
{"Input Sequence": "CUCCAGCAAUAUUACGCAAC", "self-splicing fitness (ln)": -3.13}
{"Input Sequence": "UUAAAGCAAUAUUACGUUUC", "self-splicing fitness (ln)": -1.18}
{"Input Sequence": "AAGUAGCAAUAUUACGCACG", "self-splicing fitness (ln)": 0.587}
{"Input Sequence": "CGCGAGCAAUAUUACGAUUU", "self-splicing fitness (ln)": -3.39}
{"Input Sequence": "AGUCAGCAAUAUUACGCAAG", "self-splicing fitness (ln)": -1.28}
{"Input Sequence": "GAUCAGCAAUAUUACGGCGG", "self-splicing fitness (ln)": -2.06}
{"Input Sequence": "UGAUAGCAAUAUUACGUGAU", "self-splicing fitness (ln)": -2.43}
{"Input Sequence": "CGGGAGCAAUAUUACGUCGA", "self-splicing fitness (ln)": -1.71}
{"Input Sequence": "CCCGAGCAAUAUUACGACUG", "self-splicing fitness (ln)": -2.56}
{"Input Sequence": "AAUGAGCAAUAUUACGGGCU", "self-splicing fitness (ln)": -2.21}
{"Input Sequence": "CCUAAGCAAUAUUACGAAGG", "self-splicing fitness (ln)": -2.9}

All values here come from the supplement of paper PMC7877785.
